Kindly find below pIC50 information for Caspase-1 (Homo sapiens, UniProt P29466) taken from the literature.
pIC50: −log10 of the molar value.
Observation Type: pIC50

Please give the measured pIC50 for this compound: C[C@H](NC(=O)[C@H](CCC(=O)O)NC(=O)OCc1ccccc1)C(=O)NC(CC(=O)O)C(=O)CNS(=O)(=O)CCc1ccccc1 (some centres undefined) 7.60

[P] O=C(CN1CC=CC[C@H](NC(=O)c2cccc(C(F)(F)F)c2)C1=O)N[C@H]1CC(=O)OC1O (some centres undefined)
[Q] O=C1C[C@H](NC(=O)[C@@H]2CN(S(=O)(=O)c3ccccc3)C[C@@H]3CCCC[C@H](NC(=O)c4ccccc4)C(=O)N32)C(O)O1 (some centres undefined)
Returns: the label, P or Q , whose recorded pIC50 is the lower number. Give the chosen item's label as your response. P

* * *

# merged literature set: IC50 with Caspase-1 (Homo sapiens)
Molecular target: Caspase-1 (Homo sapiens)
Sequence (P29466 whole entry): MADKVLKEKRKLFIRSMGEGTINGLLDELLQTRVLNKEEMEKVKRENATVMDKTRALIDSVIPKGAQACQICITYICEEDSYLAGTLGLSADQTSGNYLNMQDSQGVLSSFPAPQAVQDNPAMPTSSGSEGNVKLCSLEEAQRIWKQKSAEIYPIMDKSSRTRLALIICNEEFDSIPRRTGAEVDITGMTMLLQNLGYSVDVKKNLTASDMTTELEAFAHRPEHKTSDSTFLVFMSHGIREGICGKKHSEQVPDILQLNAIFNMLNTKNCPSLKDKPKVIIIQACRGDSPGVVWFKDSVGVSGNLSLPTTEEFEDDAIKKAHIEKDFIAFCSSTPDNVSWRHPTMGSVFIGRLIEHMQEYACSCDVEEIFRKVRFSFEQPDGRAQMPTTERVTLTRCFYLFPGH
Observation Type: IC50 (µM)

Below: 3 compounds and their reported IC50.
Tell me the measured IC50 of COc1cccc(C(=O)NNC(=O)C2(C(=O)N[C@H]3CC(=O)OC3O)CCC2)c1 (some centres not stated) , please. 0.26

Look at this compound and give its reported IC50. CCOC(=O)c1cc(-c2ccncc2)nnc1Cl 13

Fill blank: measured IC50 of the compound O=C1C[C@H](NC(=O)[C@@H]2COC[C@@H]3C/C=C\C[C@H](NC(=O)c4cc5ccccc5s4)C(=O)N32)C(O)O1 (some centres not stated) is ____. 0.003

[P] O=C1C[C@H](NC(=O)C2(C(=O)NNC(=O)c3cccc4ccccc34)CCCCC2)C(O)O1 (some centres not stated)
[Q] O=C(CN1CC(CNC(=O)c2ccccc2)=CC[C@H](NC(=O)c2ccc3ccccc3c2)C1=O)N[C@H]1CC(=O)OC1O (some centres not stated)
[R] O=C[C@@H](NS(=O)(=O)c1ccccc1Oc1ccc(C2CCCC2)cc1)C(=O)O
[S] CC(C)[C@H](NC(=O)OCc1ccccc1)C(=O)N[C@@H](C)C(=O)N[C@@H](CC(=O)O)C(=O)COC(=O)CC(c1ccccc1)c1ccccc1
[T] Cc1ccccc1C(=O)NNC(=O)C1(C(=O)N[C@H]2CC(=O)OC2O)CCC1 (some centres not stated)
Rank the items in ascending order with respect to IC50. When ranking, write the labels in the order the request describes. Q, S, P, T, R
(Q: 0.002 µM, S: 0.005 µM, P: 0.05 µM, T: 0.31 µM, R: 4.8 µM)
